system: P. falciparum 3D7; assay: Asexual blood-stage growth inhibition assay, SYBR green method; assay type: cell-based; details: Plasmodium falciparum, 3D7, 72 h, ring-stage 3D7 parasites
pEC50: −log10 of the molar value.
Label rule, in plain words: pEC50 of 9 and up is True, under 9 is False.

Consider the following illustrative entries.
Req: Could you tell me if the measured pEC50 of Cn1nc2c(=O)n(C3CC3)cnc2c1[C@](O)(c1cnc(C(F)(F)F)c(Cl)c1)C1CC1 (single isomer, unassigned) [3-3] reaches 9 or more?
Resp: False

Req: Could you tell me if the measured pEC50 of Cn1nc2c(=O)n(C3CC3)cnc2c1[C@](C)(O)c1cnc(C(F)(F)F)c(Cl)c1 (single isomer, unassigned) [3-1] reaches 9 or more?
Resp: False

Req: Could you tell me if the measured pEC50 of Cn1nc2c(=O)n(C3CC3)ccc2c1[C@](O)(c1cnc(C(F)(F)F)c(Cl)c1)C1CC1 (single isomer, unassigned) [1-16] reaches 9 or more?
Resp: False

Req: Could you tell me if the measured pEC50 of Cn1nc2c(=O)n(C3CC3)ccc2c1[C@](O)(c1ccc(C(F)(F)F)c(Cl)c1)C(F)(F)F (stereo in doubt) [5-7] reaches 9 or more?
Resp: True

Req: Could you tell me if the measured pEC50 of Cn1nc2c(=O)n(C3CC3)cnc2c1[C@](C)(N)c1ccc(C(F)(F)F)c(Cl)c1 (single isomer, unassigned) [4-20] reaches 9 or more?
Resp: True

Req: Could you tell me if the measured pEC50 of CCn1ccc2c([C@](O)(c3ccc(C(F)(F)F)nc3)C(C)C)n(C)nc2c1=O (single isomer, unassigned) [1-48] reaches 9 or more?
Resp: False

Req: Could you tell me if the measured pEC50 of CC(C)[C@@](O)(c1cnc(C(F)(F)F)c(Cl)c1)c1c2ccn(C3CC3)c(=O)c2nn1C (single isomer, unassigned) [1-1] reaches 9 or more?
Resp: False

Req: Could you tell me if the measured pEC50 of CC[C@@](N)(c1ccc(C(F)(F)F)c(Cl)c1)c1c2cnn(C3CC3)c(=O)c2nn1C (single isomer, unassigned) [4-18] reaches 9 or more?
Resp: False

Req: Could you tell me if the measured pEC50 of Cn1nc2c(=O)n(C3CC3)cnc2c1[C@](O)(c1ccc(C(F)F)c(C#N)c1)C(F)(F)F (single isomer, unassigned) [5-54] reaches 9 or more?
Resp: False

Req: Could you tell me if the measured pEC50 of CC(C)n1cnc2c([C@](O)(c3ccc(C(F)(F)F)c(Cl)c3)C(F)(F)F)n(C)nc2c1=O (single isomer, unassigned) [5-32] reaches 9 or more?
Resp: True

Okay, now this compound:
Req: Could you tell me if the measured pEC50 of Cn1nc2c(=O)n(C3CC3)cnc2c1[C@](O)(c1ccc(C(F)(F)F)nc1)C1CC1 (single isomer, unassigned) [3-9] reaches 9 or more?
Resp: False
